System: H1299 cells
Test: in vitro antiproliferation assay, H1299 (lung)
Format: cell-based
Conditions: Table 7; in vitro antiproliferation, H1299 (lung) cells
quantity: IC50

smiles-text | measured-result
CCOC(=O)c1cc2cccc(Nc3ncc(F)c(N(C)c4ccc(OC)c(OC)c4)n3)c2[nH]1 | ≤ 20 µM
COc1cc(Nc2nc(Nc3cccc4cc(C(=O)NC(C)(C)CO)[nH]c34)ncc2F)cc(OC)c1 | ≤ 20 µM
COC(=O)c1cc2cccc(Nc3ncc(F)c(N(C)c4ccc5c(c4)OCCO5)n3)c2o1 | > 20 µM
COc1cc(Nc2nc(Nc3cccc4cc(C(=O)N(C)CCO)[nH]c34)ncc2F)cc(OC)c1 | ≤ 20 µM
CCOC(=O)c1cc2cccc(Nc3ncc(F)c(NC4CCC4)n3)c2[nH]1 | > 20 µM
COc1cc(Nc2nc(Nc3ccc4oc(C(=O)O)cc4c3)ncc2F)cc(OC)c1 | > 20 µM
CNC(=O)c1cc2cccc(Nc3ncc(F)c(Nc4ccc5c(c4)OC(F)(F)C(F)(F)O5)n3)c2[nH]1 | ≤ 20 µM
COC(=O)c1cc2cc(Nc3ncc(F)c(N(C)c4cc(C)c(Cl)c(C)c4)n3)ccc2o1 | > 20 µM
CNC(=O)c1cc2cccc(Nc3ncc(F)c(Nc4cc(OC)cc(C(F)(F)F)c4)n3)c2[nH]1 | ≤ 20 µM
CNC(=O)c1cc2cccc(Nc3ncc(F)c(Nc4ccc5c(c4)OCO5)n3)c2[nH]1 | ≤ 20 µM
CNC(=O)c1cc2cccc(Nc3ncc(F)c(Nc4cc(OC)cc(OC)c4)n3)c2[nH]1 | ≤ 20 µM
COC(=O)c1cc2cc(Nc3ncc(F)c(Nc4cc(OC)cc(OC)c4)n3)ccc2o1 | > 20 µM
COc1cc(Nc2nc(Nc3ccc4[nH]c(C(C)=O)cc4c3)ncc2F)cc(OC)c1 | ≤ 20 µM
CCOC(=O)c1cc2cccc(Nc3ncc(F)c(Nc4cc(C)cc(C)c4)n3)c2[nH]1 | ≤ 20 µM
CCOC(=O)c1cc2cccc(Nc3ncc(F)c(Nc4ccc(OC)c(OC)c4)n3)c2[nH]1 | ≤ 20 µM

---

Test system: A549 cells
Test: in vitro antiproliferation assay, A549 (lung)
Type: cell-based
Details: A549 (lung) cells, antiproliferation
quantity: IC50

compound | measured-result
NC(=O)COc1ccc(Nc2ncc(F)c(Nc3ccc(OCC(N)=O)cc3)n2)cc1 | > 20 µM
CNC(=O)COc1cccc(Nc2ncc(F)c(N(C)c3ccc(OC)c(Cl)c3)n2)c1 | ≤ 20 µM
CCN(CC)CCNC(=O)c1ccc(Nc2ncc(F)c(Nc3ccc(Cl)c(OC)c3)n2)cc1 | ≤ 20 µM
Oc1cccc(Nc2nc(Nc3cccc(-c4ncco4)c3)ncc2F)c1 | ≤ 20 µM
COc1ccc(Nc2nc(Nc3ccc(C(N)=O)cc3)ncc2F)cc1Cl | ≤ 20 µM
O=C(COc1cccc(Nc2ncc(F)c(Nc3ccc(N4CCOCC4)cc3)n2)c1)NC1CC1 | ≤ 20 µM
CCOc1cccc(Nc2ncc(F)c(Nc3cccc(C(C)C)c3)n2)c1 | > 20 µM
CNC(=O)COc1cccc(Nc2ncc(F)c(Nc3ccc(OCCC(=O)OC)cc3)n2)c1 | > 20 µM
CNC(=O)COc1c(C)cc(Nc2ncc(F)c(N(C)c3ccc(OC)c(Cl)c3)n2)cc1C | ≤ 20 µM
CC(C)(C)OC(=O)NCc1cccc(Nc2ncc(F)c(Nc3cccc(CNC(=O)OC(C)(C)C)c3)n2)c1 | ≤ 20 µM
CNC(=O)COc1cccc(Nc2ncc(F)c(Nc3ccc(N4CCN(C(=O)OC)CC4)cc3)n2)c1 | ≤ 20 µM
COC(=O)COc1ccc(Nc2ncc(F)c(Nc3ccc(C(C)C)cc3)n2)cc1 | > 20 µM
COc1cc(Nc2ncc(F)c(N(C)c3ccc(OC)c(Cl)c3)n2)cc(OC)c1 | ≤ 20 µM
COC(=O)c1cc(Nc2ncc(F)c(Nc3ccc(OC)c(OC)c3)n2)cc(-c2ncco2)c1 | ≤ 20 µM
CNC(=O)COc1cccc(Nc2ncc(F)c(Nc3ccc(O)cc3)n2)c1 | > 20 µM
CCOC(=O)COc1cccc(Nc2nc(Nc3cccc(C(C)(C)C)c3)ncc2F)c1 | > 20 µM
CC(C)c1ccc(Nc2nc(Nc3ccc(OCCO)cc3)ncc2F)cc1 | ≤ 20 µM
COc1ccc(N(C)c2nc(Nc3ccc(C)cc3)ncc2F)cc1Cl | > 20 µM
CNC(=O)COc1ccc(Nc2ncc(F)c(Nc3ccc(OC)c(Cl)c3)n2)cc1 | > 20 µM
O=C(COc1cccc(Nc2ncc(F)c(Nc3ccc(N4CCOCC4)cc3)n2)c1)NC1CCC1 | ≤ 20 µM
OCCOc1cccc(Nc2nc(Nc3cccc(O)c3)ncc2F)c1 | > 20 µM
CNC(=O)c1ccc(Nc2ncc(F)c(Nc3cc(OC)cc(OC)c3)n2)cc1Cl | ≤ 20 µM
COc1cc(Nc2ncc(F)c(N(C)c3ccc(Cl)c(Cl)c3)n2)cc(OC)c1 | > 20 µM
COc1cc(Nc2nc(Nc3ccc(C(N)=O)c(Cl)c3)ncc2F)ccc1Cl | > 20 µM
Oc1cccc(Nc2nc(Nc3cccc(-c4ncon4)c3)ncc2F)c1 | ≤ 20 µM
Cc1cccc(Nc2ncc(F)c(Nc3cccc(C)c3)n2)c1 | ≤ 20 µM
COC(=O)COc1cccc(Nc2ncc(F)c(Nc3ccc(OC(C)C)cc3)n2)c1 | > 20 µM
COC(=O)COc1cccc(Nc2ncc(F)c(Nc3cc(C)c(OC)c(C)c3)n2)c1 | > 20 µM
CC(C)(C)c1cccc(Nc2nc(Nc3cccc(OCC(=O)NCC(O)CO)c3)ncc2F)c1 (centres unmarked) | < 20 µM
